B1: MYOZ1 (parent)
chain: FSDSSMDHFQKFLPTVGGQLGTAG

# Variants of: B1
# PROTOCOL_NOTES: protein stability index of a GFP-peptide fusion (GPS, HEK-293T) (PSI 1-6); higher = more stable;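 note: lentivirally expressed fusions sorted by FACS into six bins by GFP to DsRed ratio, PSI derived from sequencing read proportions per bin multiplied by bin number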
# CONDITION_PARAMETERS: c terminus: a fixed tail appended
Record true (1) whenever protein stability index is at 3 or higher; record false (0) when lower.

Worked examples follow.
FSDSSMDHFQKFLPTQGGQLGTAG [V16Q]; true (1)
FSDSSMDHFQKFLPTVGGQSGTAG [L20S]; true (1)
FSDSSMDHFQKFLPTVGGALGTAG [Q19A]; false (0)
FSDSSMDHFQKFLPTVGGQFGTAG [L20F]; false (0)
FSDSSMDHFQKHLPTVGGQLGTAG [F12H]; true (1)

Please look at the following variant next.
Request: Test whether the variant FSDSSMDHFQKFLPTVGGQLGHAG [T22H] records protein stability index of 3 or higher.
Response: false (0)
